Test system: Rattus norvegicus
assay.protocol: Gastrointestinal toxicity in albino rat assessed as ulcerogenic index at 50 mg/kg, po
Format: organism-based
Set-up: dose 50 mg/kg, route oral
setup.conditions: in vivo
recorded.metric: UI

>  <compound>
CCOC(=O)C1=C(C)NC(OC)N(CC(=O)c2ccccc2)C1c1ccc(O)cc1 (stereo not drawn)

>  <reported.value>
0.18

$$$$
>  <compound>
CCOC(=O)C1=C(C)NC(OC)N(CC(=O)c2ccc(Cl)cc2)C1c1ccc(OC)cc1 (stereo not drawn)

>  <reported.value>
0.45

$$$$
>  <compound>
CCOC(=O)C1=C(C)NC(OC)N(CC(=O)c2ccc(Cl)cc2)C1c1ccc(O)cc1 (stereo not drawn)

>  <reported.value>
0.45

$$$$

Entry CCOC(=O)C1=C(C)NC(OC)N(CC(=O)c2ccc(OC)cc2)C1c1ccc(OC)cc1 (stereo not drawn) — recorded UI = 0.2

Entry CCOC(=O)C1=C(C)NC(OC)N(CC(=O)c2ccccc2)C1c1ccc(Cl)cc1 (stereo not drawn) — recorded UI = 0.45

Entry CCOC(=O)C1=C(C)NC(OC)N(CC(=O)c2ccc(OC)cc2)C1c1ccc(C)cc1 (stereo not drawn) — recorded UI = 0.56

Entry CCOC(=O)C1=C(C)NC(OC)N(CC(=O)c2ccc(OC)cc2)C1c1ccccc1 (stereo not drawn) — recorded UI = 0.74

Entry CCOC(=O)C1=C(C)NC(OC)N(CC(=O)c2ccccc2)C1c1ccc(OC)cc1 (stereo not drawn) — recorded UI = 0.75

Entry CC(C)Cc1ccc(C(C)C(=O)O)cc1 (stereo not drawn) [IBUPROFEN] — recorded UI = 1.97

Data origin: ChEMBL document CHEMBL1153580
